Measured pKd values are reported for all entries that follow.
# measurement.target: T1, fHbp mutant 0017 (Neisseria meningitidis, fHbp v1.1 mutant, point mutant)
# T1 chain: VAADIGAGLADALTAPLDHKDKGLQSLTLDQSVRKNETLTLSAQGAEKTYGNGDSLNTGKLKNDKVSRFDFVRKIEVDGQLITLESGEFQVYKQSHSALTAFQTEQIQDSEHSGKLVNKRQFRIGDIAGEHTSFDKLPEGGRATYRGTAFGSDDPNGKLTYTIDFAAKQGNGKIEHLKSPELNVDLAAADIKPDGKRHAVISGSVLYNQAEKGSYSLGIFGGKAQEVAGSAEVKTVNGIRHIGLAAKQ
# assay.procedure: BLI
# condition.summary: both partners purified
Please treat pKd as minus the base-10 logarithm of the molar concentration.

{"binder": "mAb 4B3 (human) (antibody, V domains shown, also called 4B3-2; source: Expi293, purified (MabSelect SuRe, SEC); copies: 2 + 2) VH: QVQLVQSGGGLVKPGGSLRLSCAASGFPFSSYYMSWIRQAPGKGLEWVSDINNSGNVKEYADFVKGRLTISRDNVKNSMYLHMNSLRVEDTAVYYCARNRGRFDVWGQGTLVTVSA VL: EIVMTQSPGTLSLSPGETATLSCRASQMISSPFLAWYQQRRGQAPRLLIYGASTRATDTPDRFRGSGSGTDFILTISRLEPEDFAVYYCQYYDDSPFTFGQGTKLEIK", "reported.measurement": 8.53}
{"binder": "mAb 1E6 (human) (antibody, V domains shown, source: Expi293, purified (MabSelect SuRe, SEC); copies: 2 + 2) VH: EVQLVQSGAEVKKPGSSVKVSCKASGGTVIDYPITWVRQAPGQGLEWVGGFVPLFRTSNYGQKFQGRVTITADKSTSTASMELNSLTSEDTAIYYCARGDTAMGPFDYWGQGTLVTVSS VL: SYVLTQPPSLSVAPGKTATLTCGGNNIAGKTVHWYQQRPGQAPVLVISYDSDRPSGIPERFSGSNSANTATLTISRVEAGDEADYYCQVWDRNSDHWVFGGGTKLTVL", "reported.measurement": 8.37}

Switching to the query record.
Exam item: Return pKd for the following binder: mAb JAR5 (mouse) (antibody, V domains shown, source: Expi293, purified (MabSelect SuRe, SEC); copies: 2 + 2) VH: QVQMQQPGAELVKPGASVKLSCKASGYTFISYWMHWVKQRPGRGLEWIGRIAPDTGIIYYNEKFKNKATLTVDTPSSTAYMQLNSLTSEDSAVYYCARYLKYDGSTYRFDYWGQGTTLTVSS VL: DIVMTQAAPSVPVTPGESVSISCRSSKSLLHSNGNTYLFWFLQRPGQSPQLLIYRMSNLASGVPDRFSGSGSGTSFTLRISRVEAEDVGVYYCMQHLEYPYTFGGGTKLEIK
Marked response: 10.53
